# EXPERIMENTAL TARGET: T1, ASH1L plant homeodomain (PHD) finger, wild type (aa 2579-2629) (human, UniProt Q9NR48 2579-2629)
# T1 chain: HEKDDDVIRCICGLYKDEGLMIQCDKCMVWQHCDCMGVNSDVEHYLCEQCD
# ASSAY OVERVIEW: MST
Ends that are not written are not given here. Me3 = trimethyl on lysine side chain
READOUT KIND: Kd

Problem: Using known records, supply Kd for ARTK(Me3)QTARKSTG [histone H3K4me3 peptide (aa 1-12 of H3)]
Result: 1100 nM
